Test system: MDA-MB-468 breast
TEST DESCRIPTION: NCI-60 one-dose screen, 48 h
REPORTED CONDITIONS: 10 µM unless noted
Method: Growth inhibition of the MDA-MB-468 human Breast tumor cell line is measured as a screen for anti-cancer activity. Cells are grown in 96 well plates and exposed to the test compound for 48 hours. Compounds are tested at a single concentration, which is 10^-5 M for most compounds. The reported endpoint is percent growth (GI% or GIPRCNT), where numbers from 0 - 100% represent growth inhibition, and numbers from -100% - 0 represent cell death. […]
This is part of a sample that, as a whole, favours compounds with a hit. Of some 83,000 tested, about 20% had one in any assay. Activity calls are given as the source filed them. Rule for the calls: active = growth percent below 10; inactive = the rest.
Outcome field: choose from active, inactive

For "CCOP(=O)(Nc1ccc2c(c1)/C(=N/NC(N)=S)c1ccccc1-2)OCC" , what call appears in the results of this test?
inactive

Entry "CC(=O)[O][Hg][c]1nc2c(c(=O)n(C)c(=O)n2C)n1C" : call = ?
inactive

Call for entry "CC1=C2C(=C[C@@](C)(COC(=O)c3ccc(S(=O)(=O)F)cc3)[C@@H]2O)C(=O)[C@](C)(O)C12CC2" :
active

Please state the recorded outcome for this molecule: "Cc1cccc(N=C2c3cc([N+](=O)[O-])ccc3-c3c2cc([N+](=O)[O-])cc3[N+](=O)[O-])c1"
active

Per the records of this test, what outcome belongs to "O=[N+]([O-])c1ccc(P(=O)(O)O)cc1" ?
inactive

Returns: the outcome recorded for "ClCCN(CCCl)c1ccc(C=NCCc2c[nH]c3ccccc23)cc1" in this assay.
active

Name the outcome recorded for "CCCCOC(=O)c1ccccc1C(=O)O.CCCCOC(=O)c1ccccc1C(=O)O.[Cu+2]" in the assay.
inactive

Tell me the recorded outcome of this test for "O=C(CCCCCCC(=O)Nc1ccc(N(CCCl)CCCl)cc1)NO" .
active

Hi, sorry to bother you, what did the test record for "COc1cc([C@@H]2c3cc4c(cc3[C@H](OC(C)=O)[C@H]3COC(=O)[C@@H]23)OCO4)cc(OC)c1OC" ?
active

Identify the outcome logged in this assay for the molecule shown: "O=CC1(c2ccccc2)CCN(Cc2ccccc2)CC1"
inactive

Each molecule tested received a call. Report the one for COc1ccc2c(c1)C1(C)CCN(C)CC(C1)C2O (stereo not drawn) .
inactive

Which result was noted for this molecule in the test: "Oc1c(O)c(Cl)c(Cl)c(Cl)c1Cl"
inactive

Give the logged outcome of this assay for the following molecule: "C[C@]12C[C@H](c3ccoc3)OC(=O)[C@H]1CC[C@@]1(C)[C@@H]2[C@H]2C=C[C@]1(O)C(=O)O2"
inactive

Please let me know the test result on file for "Cn1cc(-c2csc(-c3cn(CCCCN4CCOCC4)c4ccc(F)cc34)n2)c2cccnc21" .
inactive

Test call, this molecule: COCC1OC2OC3C(COC)OC(OC4C(COC)OC(OC5C(COC)OC(OC6C(COC)OC(OC7C(COC)OC(OC8C(COC)OC(OC1C(O)C2O)C(O)C8O)C(O)C7O)C(O)C6O)C(O)C5O)C(O)C4O)C(O)C3O (stereo not drawn) (tested in a mixture with another compound)
inactive

Status in this test for "C/C(=C\c1ccn(-c2ccc(N)cc2F)n1)[C@@H]1C[C@@H]2O[C@]2(C)CCC[C@H](C)[C@H](O)[C@@H](C)C(=O)C(C)(C)[C@@H](O)CC(=O)O1" ?
active

Record request — test call for "Oc1ccccc1C=NCCN=Cc1ccccc1O"
inactive

Hey, what did the test say about "CO[C@H]1CC[C@@]2(C)C(=CC[C@@H]3[C@@H]2CC[C@]2(C)C(=O)C(=O)C[C@@H]32)C1" ?
inactive

Ref: PubChem BioAssay (NCI)
